Biological target: 1b (BK) NS5bΔ21 (Hepatitis C virus genotype 1b (isolate BK) (HCV), UniProt P26663)
Sequence (P26663 2420-2989): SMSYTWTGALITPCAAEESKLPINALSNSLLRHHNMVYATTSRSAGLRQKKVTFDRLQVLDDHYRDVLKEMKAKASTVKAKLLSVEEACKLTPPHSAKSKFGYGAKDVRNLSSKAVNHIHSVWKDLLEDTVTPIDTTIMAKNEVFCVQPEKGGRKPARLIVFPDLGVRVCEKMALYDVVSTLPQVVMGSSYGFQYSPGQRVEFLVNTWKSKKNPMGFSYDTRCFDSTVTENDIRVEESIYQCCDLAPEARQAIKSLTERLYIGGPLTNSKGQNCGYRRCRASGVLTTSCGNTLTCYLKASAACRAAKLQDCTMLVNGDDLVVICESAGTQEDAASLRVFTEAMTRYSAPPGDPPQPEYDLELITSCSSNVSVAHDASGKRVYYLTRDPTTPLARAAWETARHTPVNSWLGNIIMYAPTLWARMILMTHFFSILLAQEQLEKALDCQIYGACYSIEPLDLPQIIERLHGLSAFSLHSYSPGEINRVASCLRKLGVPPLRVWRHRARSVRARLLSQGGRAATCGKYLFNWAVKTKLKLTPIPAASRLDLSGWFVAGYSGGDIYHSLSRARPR
Experiment: HCV polymerase inhibition assay, genotype 1b
Format: biochemical, HCV genotype 1b (BK)
Conditions: 1b (BK) NS5bΔ21, 33P-GTP incorporation; read-out: 1b polymerase IC50 (range class)
Below: a set of entries, each annotated with reported IC50.

Below, 2 molecules whose answers are already recorded.
>>> reported_result("CNC(=O)c1c2cc(C3CC3)c(N(CCCO)S(C)(=O)=O)cc2nn1-c1ccc(Br)c(F)c1 [Compound 223]")
"< 990 nM"
>>> reported_result("CNC(=O)c1c2cc(C3CC3)c(N(CCCN3C(=O)c4ccccc4C3=O)S(C)(=O)=O)cc2nn1-c1ccc(Br)cc1 [Compound 169]")
"< 990 nM"

Continue with the molecule presented below.
**Q:** Query: IC50; subject: CCN(c1cc2nn(-c3ccc(Nc4ccccc4F)cc3)c(C(=O)NC)c2cc1OC)S(C)(=O)=O [Compound 123]
**A:** 1000 to 9990 nM

====

Molecular target: 1b (BK) NS5bΔ21 (Hepatitis C virus genotype 1b (isolate BK) (HCV))
Experiment: HCV polymerase inhibition assay, genotype 1b
Format: biochemical, HCV genotype 1b (BK)
Details: 1b (BK) NS5bΔ21, 33P-GTP incorporation; read-out: 1b polymerase IC50 (range class)
OUTCOME MEASURE: IC50

In the examples that follow, each entry is paired with its recorded IC50.
>>> reported_result("C#Cc1cc2c(C(=O)NC)n(-c3ccc(F)cc3)nc2cc1N(CC)S(C)(=O)=O [Compound 77]")
"10 to 50 µM"
>>> reported_result("CNC(=O)c1c2cc(C3CC3)c(N(CCCO)S(C)(=O)=O)cc2nn1-c1ccc(C2CC2)cc1 [Compound 53]")
"1 to 9.99 µM"
>>> reported_result("CNC(=O)c1c2cc(C3CC3)c(N(C)S(C)(=O)=O)cc2nn1-c1ccc(Cl)cc1 [Compound 237]")
"< 0.99 µM"
>>> reported_result("CNC(=O)c1c2cc(C3CC3)c(N(CCC3CCOCC3)S(C)(=O)=O)cc2nn1-c1ccc(Cl)cc1 [Compound 250]")
"< 0.99 µM"
>>> reported_result("CNC(=O)c1c2cc(C3CC3)c(N(CCCN(C)C)S(C)(=O)=O)cc2nn1-c1ccc(Cl)cc1 [Compound 199]")
"1 to 9.99 µM"
>>> reported_result("CNC(=O)c1c2cc(C3CC3)c(N(CCF)S(C)(=O)=O)cc2nn1-c1ccc(Cl)cc1 [Compound 247]")
"< 0.99 µM"
>>> reported_result("CNC(=O)c1c2cc(C3CC3)c(N(CCO)S(C)(=O)=O)cc2nn1-c1ccc(F)cc1 [Compound 14]")
"10 to 50 µM"
>>> reported_result("CNC(=O)c1c2cc(C3CC3)c(N(CCCO)S(C)(=O)=O)cc2nn1-c1ccc(Br)cc1 [Compound 4]")
"< 0.99 µM"

**Q:** What IC50 value was documented for this molecule, CNC(=O)c1c2cc(C3CC3)c(N(CCC(=O)NS(=O)(=O)c3ccccc3)S(C)(=O)=O)cc2nn1-c1ccc(Br)cc1 [Compound 150] ?
**A:** < 0.99 µM

**Q:** Can you handle CNC(=O)c1c2cc(C3CC3)c(N(CCC3COC(=O)OC3)S(C)(=O)=O)cc2nn1-c1ccc(Br)cc1 [Compound 97] next?
**A:** < 0.99 µM

====

Biological target: 1b (BK) NS5bΔ21 (Hepatitis C virus genotype 1b (isolate BK) (HCV))
Assay: HCV polymerase inhibition assay, genotype 1b
Type: biochemical, HCV genotype 1b (BK)
Details: 1b (BK) NS5bΔ21, 33P-GTP incorporation; read-out: 1b polymerase IC50 (range class)
OUTCOME MEASURE: IC50

>>> reported_result("CCN(c1cc2nn(-c3ccc(NCC(C)C)cc3)c(C(=O)NC)c2cc1OC)S(C)(=O)=O")
"1000 to 9990 nM"
>>> reported_result("CNC(=O)c1c2cc(C3CC3)c(N(CCCNC(=O)CCN)S(C)(=O)=O)cc2nn1-c1ccc(Br)cc1")
"< 990 nM"
>>> reported_result("CNC(=O)c1c2cc(C3CC3)c(N(CCC(F)(F)F)S(C)(=O)=O)cc2nn1-c1ccc(Br)cc1")
"< 990 nM"
>>> reported_result("CCN(c1cc2nn(-c3ccc(Br)cc3)c(C(=O)NC)c2cc1C1CC1)S(=O)(=O)C(F)(F)F")
"1000 to 9990 nM"
>>> reported_result("CNC(=O)c1c2cc(C3CC3)c(N(CCCN3CCOCC3)S(C)(=O)=O)cc2nn1-c1ccc(Br)cc1")
"< 990 nM"
>>> reported_result("CNC(=O)c1c2cc(C3CC3)c(N(CCCO)S(C)(=O)=O)cc2nn1-c1ccc(C)cc1")
"< 990 nM"
>>> reported_result("CNC(=O)c1c2cc(C3CC3)c(N(CCF)S(C)(=O)=O)cc2nn1-c1ccc(Br)cc1")
"< 990 nM"
>>> reported_result("CNC(=O)c1c2cc(C3CC3)c(N(CCCNC(=O)C3CC3)S(C)(=O)=O)cc2nn1-c1ccc(Br)cc1")
"< 990 nM"

**Q:** Find the recorded IC50 belonging to `CNC(=O)c1c2cc(C3CC3)c(N(CCCNC(=O)c3ccccc3)S(C)(=O)=O)cc2nn1-c1ccc(Br)cc1` and report it.
**A:** < 990 nM

**Q:** Can you handle `CNC(=O)c1c2cc(C3CC3)c(N(CCCO)S(C)(=O)=O)cc2nn1-c1ccc(Oc2ccc(F)cc2)cc1` next?
**A:** < 990 nM

**Q:** How about `CCN(C(C)=O)c1cc2nn(-c3ccc(Br)cc3)c(C(=O)NC)c2cc1C1CC1` ?
**A:** 10000 to 50000 nM

**Q:** // same read-out, input: `CCN(c1cc2nn(-c3ccc(Cl)c(F)c3)c(C(=O)NC)c2cc1C1CC1)S(C)(=O)=O`
**A:** < 990 nM

====

Molecular target: genotype 3a (VRL-69) NS5bΔ21 polymerase (Hepatitis C virus genotype 3a, UniProt Q81258)
Sequence (Q81258 whole entry, looked up, stated change not applied): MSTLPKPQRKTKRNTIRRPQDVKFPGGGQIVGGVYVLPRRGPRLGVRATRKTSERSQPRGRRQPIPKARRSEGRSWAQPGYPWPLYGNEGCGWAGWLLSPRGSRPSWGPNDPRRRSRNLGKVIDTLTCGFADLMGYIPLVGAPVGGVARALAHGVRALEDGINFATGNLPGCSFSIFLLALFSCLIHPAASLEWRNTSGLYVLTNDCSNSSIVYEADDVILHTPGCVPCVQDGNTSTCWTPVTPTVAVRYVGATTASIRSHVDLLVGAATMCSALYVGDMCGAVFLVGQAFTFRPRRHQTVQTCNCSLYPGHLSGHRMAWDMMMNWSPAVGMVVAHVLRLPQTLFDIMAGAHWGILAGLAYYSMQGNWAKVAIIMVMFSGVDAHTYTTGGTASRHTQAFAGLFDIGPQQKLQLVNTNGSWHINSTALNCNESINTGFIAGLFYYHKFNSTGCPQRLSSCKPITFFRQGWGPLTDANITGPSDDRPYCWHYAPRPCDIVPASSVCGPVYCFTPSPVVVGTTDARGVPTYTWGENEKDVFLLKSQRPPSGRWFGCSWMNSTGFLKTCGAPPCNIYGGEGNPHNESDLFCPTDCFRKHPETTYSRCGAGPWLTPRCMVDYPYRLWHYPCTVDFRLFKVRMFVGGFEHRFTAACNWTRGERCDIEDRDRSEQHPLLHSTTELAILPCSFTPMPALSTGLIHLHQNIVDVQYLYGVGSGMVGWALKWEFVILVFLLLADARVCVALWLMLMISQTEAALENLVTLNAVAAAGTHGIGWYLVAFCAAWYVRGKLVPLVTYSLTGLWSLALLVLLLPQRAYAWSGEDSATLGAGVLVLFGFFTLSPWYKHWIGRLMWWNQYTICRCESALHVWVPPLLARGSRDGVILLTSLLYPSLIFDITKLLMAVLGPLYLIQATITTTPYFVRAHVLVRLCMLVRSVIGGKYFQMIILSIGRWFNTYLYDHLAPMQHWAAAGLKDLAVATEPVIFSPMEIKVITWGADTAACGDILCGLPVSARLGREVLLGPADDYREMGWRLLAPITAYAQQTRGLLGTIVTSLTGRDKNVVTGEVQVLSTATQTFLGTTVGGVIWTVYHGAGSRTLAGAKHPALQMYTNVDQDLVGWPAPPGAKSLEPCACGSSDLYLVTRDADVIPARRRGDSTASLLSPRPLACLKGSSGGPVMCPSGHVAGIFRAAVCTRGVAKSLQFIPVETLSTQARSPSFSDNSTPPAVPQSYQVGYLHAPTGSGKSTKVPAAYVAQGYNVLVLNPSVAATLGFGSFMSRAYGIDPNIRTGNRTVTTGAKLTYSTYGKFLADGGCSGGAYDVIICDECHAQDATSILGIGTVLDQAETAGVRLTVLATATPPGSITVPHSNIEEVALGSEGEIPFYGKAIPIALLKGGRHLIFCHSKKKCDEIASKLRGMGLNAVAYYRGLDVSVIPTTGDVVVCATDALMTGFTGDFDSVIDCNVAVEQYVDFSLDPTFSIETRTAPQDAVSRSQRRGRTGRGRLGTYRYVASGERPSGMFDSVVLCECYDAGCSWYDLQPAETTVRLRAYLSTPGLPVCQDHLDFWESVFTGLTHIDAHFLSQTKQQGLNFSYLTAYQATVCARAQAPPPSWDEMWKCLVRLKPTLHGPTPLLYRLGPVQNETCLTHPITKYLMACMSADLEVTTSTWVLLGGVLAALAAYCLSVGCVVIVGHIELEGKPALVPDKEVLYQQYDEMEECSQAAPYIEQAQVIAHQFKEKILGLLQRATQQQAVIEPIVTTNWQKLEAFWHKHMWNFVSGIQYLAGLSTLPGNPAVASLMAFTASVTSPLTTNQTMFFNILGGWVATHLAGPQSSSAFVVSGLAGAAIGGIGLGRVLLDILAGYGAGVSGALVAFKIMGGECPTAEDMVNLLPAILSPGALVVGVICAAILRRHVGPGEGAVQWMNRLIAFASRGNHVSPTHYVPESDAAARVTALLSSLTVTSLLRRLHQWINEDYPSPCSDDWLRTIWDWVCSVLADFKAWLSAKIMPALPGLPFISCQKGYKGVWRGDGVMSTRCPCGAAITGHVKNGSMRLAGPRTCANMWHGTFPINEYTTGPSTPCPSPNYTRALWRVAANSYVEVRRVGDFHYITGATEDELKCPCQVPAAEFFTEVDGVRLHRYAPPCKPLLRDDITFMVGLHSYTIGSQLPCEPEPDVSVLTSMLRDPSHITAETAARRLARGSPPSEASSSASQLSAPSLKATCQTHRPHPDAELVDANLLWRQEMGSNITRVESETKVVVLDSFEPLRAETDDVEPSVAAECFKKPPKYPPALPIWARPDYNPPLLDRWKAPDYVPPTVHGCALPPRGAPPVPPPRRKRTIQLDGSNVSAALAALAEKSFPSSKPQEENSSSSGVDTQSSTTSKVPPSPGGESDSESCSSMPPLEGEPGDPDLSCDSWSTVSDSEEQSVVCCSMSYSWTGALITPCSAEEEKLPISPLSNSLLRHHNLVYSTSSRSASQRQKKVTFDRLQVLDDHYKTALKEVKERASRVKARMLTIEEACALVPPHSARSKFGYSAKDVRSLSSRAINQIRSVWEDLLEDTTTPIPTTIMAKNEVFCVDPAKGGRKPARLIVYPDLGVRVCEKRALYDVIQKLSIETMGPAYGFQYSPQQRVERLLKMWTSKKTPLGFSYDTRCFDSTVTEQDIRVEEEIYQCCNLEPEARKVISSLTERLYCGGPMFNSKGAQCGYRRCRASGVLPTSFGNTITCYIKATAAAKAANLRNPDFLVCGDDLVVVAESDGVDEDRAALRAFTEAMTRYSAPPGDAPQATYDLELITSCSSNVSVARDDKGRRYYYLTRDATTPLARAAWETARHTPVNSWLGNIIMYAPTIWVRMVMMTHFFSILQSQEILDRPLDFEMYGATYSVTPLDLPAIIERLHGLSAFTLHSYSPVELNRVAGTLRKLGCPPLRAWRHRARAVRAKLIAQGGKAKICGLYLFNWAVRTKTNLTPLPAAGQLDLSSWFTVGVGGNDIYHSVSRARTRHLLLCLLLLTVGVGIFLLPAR
Assay: HCV polymerase inhibition assay, genotype 3a
Format: biochemical, HCV genotype 3a (VRL-69)
Details: genotype 3a; read-out: 3a NS5b polymerase IC50
Threshold-based label: IC50 under 30 nM gives 1.0, IC50 not under 30 nM gives 0.0.

Some solved entries appear below for comparison.
>>> group("CNC(=O)c1c2cc(C3CC3)c(N(CCCO)S(C)(=O)=O)cc2nn1-c1ccc(Br)cc1 [Compound 4]")
1.0
>>> group("CNC(=O)c1c2cc(C3CC3)c(N(CCCNC(=O)c3cccc(OC)c3F)S(C)(=O)=O)cc2nn1-c1ccc(Br)cc1 [Compound 189]")
0.0
>>> group("CNC(=O)c1c2cc(C3CC3)c(N(CCCNC(=O)[C@H]3CCC[C@@H]3C(=O)OC)S(C)(=O)=O)cc2nn1-c1ccc(Br)cc1 [Compound 216]")
1.0
>>> group("CNC(=O)c1c2cc(C3CC3)c(N(CCCNC(=O)C(C)C)S(C)(=O)=O)cc2nn1-c1ccc(Br)cc1 [Compound 156]")
0.0
>>> group("CCN(c1cc2nn(-c3ccc(NCC(C)C)cc3)c(C(=O)NC)c2cc1C1CC1)S(C)(=O)=O [Compound 117]")
0.0
>>> group("CNC(=O)c1c2cc(C3CC3)c(N(CCCN3CCOCC3)S(C)(=O)=O)cc2nn1-c1ccc(Br)cc1 [Compound 200]")
0.0
>>> group("CNC(=O)c1c2cc(C3CC3)c(N(CCCN3CCCCC3)S(C)(=O)=O)cc2nn1-c1ccc(Oc2ccc(F)cc2)cc1 [Compound 111]")
0.0
>>> group("CNC(=O)c1c2cc(C3CC3)c(N(CCCNC(C)=O)S(C)(=O)=O)cc2nn1-c1ccc(Br)cc1 [Compound 59]")
0.0

**Q:** Strictly below 30 nM: is that where IC50 of CNC(=O)c1c2cc(C3CC3)c(N(CCCO)S(C)(=O)=O)cc2nn1-c1ccc(Nc2ccc(F)cc2)cc1 [Compound 21] sits?
**A:** 0.0

**Q:** Proceed to CNC(=O)c1c2cc(C3CC3)c(N(CCC3COC(C)(C)OC3)S(C)(=O)=O)cc2nn1-c1ccc(Br)cc1 [Compound 95]
**A:** 0.0

====

Test system: subgenomic genotype 2a replicon cell line
Experiment: HCV replicon assay, genotype 2a
Format: cell-based, HCV genotype 2a
Details: Hepatitis C virus
Below is a list of entries, each paired with its recorded EC50 value.
Answers without a unit are incomplete; give the number and then its unit.

Here is how some compounds turned out for EC50.
>>> reported_result("CNC(=O)c1c2cc(C3CC3)c(N(CCCN3CCOCC3)S(C)(=O)=O)cc2nn1-c1ccc(Br)cc1")
"1050 nM"
>>> reported_result("CNC(=O)c1c2cc(C3CC3)c(N(CCCNC(C)=O)S(C)(=O)=O)cc2nn1-c1ccc(Br)cc1")
"1430 nM"

# next compound below
**Q:** Which EC50 value belongs to `CNC(=O)c1c2cc(C3CC3)c(N(CCCSC)S(C)(=O)=O)cc2nn1-c1ccc(Br)cc1` ?
**A:** 1080 nM
